quantity: melting point

> print(dat)
                                   compound  measured.value
1           Clc1c2nc3ccccc3c-2[nH]c2ccccc12   220 to 222 °C
2  Cc1ccc2nc(NC(=O)c3ccc(C(C)(C)CCc4nnn[nH]4)cc3)cn2c1   245 to 246 °C
3  Nc1cccc(C=CC(=O)N2CCc3c([nH]c4ccccc34)C2c2ccc3c(c2)OCO3)c1 (stereo not given)   139 to 141 °C

# melting point lookup, item CCCCCCCCCC1COC(c2ccc(CCCCCCC)c(F)c2F)OC1 (stereo not given) 40.4 °C

# melting point lookup, item `Cc1nc2cc3[nH]c(-c4ccncc4)nc3cc2s1` > 300 °C

----------
Examples of compounds with documented melting point follow.

Reference set, count: 3
> print(dat)
                                   compound  measured.value
1                 COc1cc(C(C)=O)ccc1OCCCCBr     52 to 54 °C
2  OC1CCCc2nc3cc(Cl)ccc3c(NCc3ccccc3)c21 (centres undefined)          163 °C
3  N#CCCN1C(=O)C2(COc3cc4c(cc32)OCO4)c2ccccc21 (centres undefined)   200 to 202 °C

Here's the next entry for you.
# melting point lookup, item Cc1ccc(Cl)c(NS(=O)(=O)C2(NC=O)N=CN=N2)c1Cl (centres undefined) 275 to 279 °C

----------
quantity: melting point

Reference set, count: 5
> print(dat)
                                   compound  measured.value
1      O=C(O)C(=O)CC(=O)c1cccn1Cc1cccc(F)c1   147 to 149 °C
2  CC(C)c1ccc(C2=C(c3ccc(S(C)(=O)=O)cc3)OC3(CCCC3)C2=O)cc1   139 to 140 °C
3  CCOc1nn(-c2ccccn2)cc1CCCOc1cc(CCC(=O)O)n(-c2ccccc2)n1   156 to 157 °C
4              NC(=O)c1cc(-c2ccc(F)cc2)sc1N   170 to 171 °C
5   CNc1nc(C)c(-c2ccnc(Nc3ccc(CCO)cc3)n2)s1   216 to 218 °C

# melting point lookup, item `CN(N)C(=S)Nc1ccc(F)cc1` 148 to 150 °C

# melting point lookup, item `OCc1ccc(-c2cn(Cc3ccccc3)c3ccccc23)cc1` 122 °C

# melting point lookup, item Cn1cccc1CCNC(=O)C(C#N)C(=O)c1nn(-c2ccccc2)c2c1Cc1ccccc1-2 (stereo not drawn) 288 to 291 °C

# melting point lookup, item `Cc1cc(C)cc(C(=O)N[C@H](Cc2ccccc2)C(=O)N[C@@H](Cc2c[nH]c3ccccc23)C(=O)O)c1` 95 to 98 °C

# melting point lookup, item `O=C(c1cc(Br)cc(Br)c1)c1cc(Br)cc(Br)c1` 208 to 209 °C

# melting point lookup, item `COc1ccccc1-n1c(=O)[nH]c2c(C(N)=O)nc(-c3cccc(C#N)c3)nc21` 316 to 318 °C

# melting point lookup, item `COc1ccc2cnc(=O)[nH]c2c1C(C)C` 188 to 190 °C

# melting point lookup, item CCn1cc(C(=O)O)c(=O)c2cc(F)c(N3CCOC(CN(C)C)C3)c(F)c21 (stereo not drawn) 185 to 188 °C

# melting point lookup, item `Cc1ccccc1OC(=O)N1CCCC1=O` 85 to 87 °C

# melting point lookup, item `C=CCOC(=O)c1ccc(CC(=O)Nc2ccc3c(c2)C(C)(C)CCC3(C)C)cc1` 49 to 50 °C

# melting point lookup, item CCOC(=O)C1=C(C)NC(=S)N(C(=O)OCC)C1c1ccc([N+](=O)[O-])cc1 (stereo not drawn) 163 to 165 °C
